Quick reference: percent inhibition of viability of the listed items.
tested on: normal primary NK cells, pool 3 (3 donors) (IL-2 2.5 ng/mL); experiment: percent inhibition of viability; higher = more inhibition; settings: 72 h; 10 nM;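 further: normalised to DMSO-only wells as negative and benzethonium chloride as positive control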
resultType: percent inhibition of viability (%)

>  <molecule>
Cn1ncnc1[C@H]1c2n[nH]c(=O)c3cc(F)cc(c23)N[C@@H]1c1ccc(F)cc1 [Talazoparib] (max concentration tested 1000 nM)

>  <outputUnit>
%

>  <valueReported>
2.46

$$$$
>  <molecule>
COc1cc(OC)c(/C=C/S(=O)(=O)Cc2ccc(OC)c(NCC(=O)O)c2)c(OC)c1 [Rigosertib] (max concentration tested 10000 nM)

>  <outputUnit>
%

>  <valueReported>
-15.7

$$$$
>  <molecule>
Cc1csc(-c2nnc(Nc3ccc(Oc4ncccc4-c4ccnc(N)n4)cc3)c3ccccc23)c1 [AMG-900] (max concentration tested 1000 nM)

>  <outputUnit>
%

>  <valueReported>
-7.75

$$$$
>  <molecule>
Cc1ccc(Nc2nccc(N(C)c3ccc4c(C)n(C)nc4c3)n2)cc1S(N)(=O)=O [Pazopanib] (max concentration tested 10000 nM)

>  <outputUnit>
%

>  <valueReported>
-9.49

$$$$
>  <molecule>
CCN(CC)CCNC(=O)c1c(C)[nH]c(/C=C2\C(=O)Nc3ccc(F)cc32)c1C [Sunitinib] (max concentration tested 1000 nM)

>  <outputUnit>
%

>  <valueReported>
-6.25

$$$$
>  <molecule>
C[C@]12C=CC(=O)C=C1CC[C@@H]1[C@@H]2[C@@H](O)C[C@@]2(C)[C@H]1CC[C@]2(O)C(=O)CO [Prednisolone] (max concentration tested 10000 nM)

>  <outputUnit>
%

>  <valueReported>
-4.01

$$$$

---

Entries annotated with measured percent inhibition of viability
tested on: normal primary NK cells, pool 1 (3 donors), resting (IL-2 0 ng/mL); assay: percent inhibition of viability; higher = more inhibition; conditions: 72 h; 10000 nM

>  <molecule>
c1ccc(Cn2c(-c3ccc(OC[C@H](C4CCNCC4)n4c(-c5ccccc5)nc5ccccc54)cc3)nc3ccccc32)cc1 [deltarasin] (max concentration tested 10000 nM)

>  <targetSystem>
normal primary NK cells, pool 1 (3 donors), resting (IL-2 0 ng/mL)

>  <percent inhibition of viability / %>
100

$$$$
>  <molecule>
CCCCCCCCc1ccc(CCC(N)(CO)CO)cc1 [Fingolimod] (max concentration tested 10000 nM)

>  <targetSystem>
normal primary NK cells, pool 1 (3 donors), resting (IL-2 0 ng/mL)

>  <percent inhibition of viability / %>
100

$$$$
>  <molecule>
CO[C@H](C(=O)[C@@H](O)[C@@H](C)O)[C@@H]1Cc2cc3cc(O[C@H]4C[C@@H](O[C@@H]5C[C@@H](O)[C@H](O)[C@@H](C)O5)[C@H](O)[C@@H](C)O4)c(C)c(O)c3c(O)c2C(=O)[C@H]1O[C@H]1C[C@@H](O[C@@H]2C[C@@H](O)[C@@H](O[C@@H]3C[C@](C)(O)[C@H](O)[C@@H](C)O3)[C@@H](C)O2)[C@H](O)[C@@H](C)O1 [Plicamycin] (max concentration tested 10000 nM)

>  <targetSystem>
normal primary NK cells, pool 1 (3 donors), resting (IL-2 0 ng/mL)

>  <percent inhibition of viability / %>
89.5

$$$$
>  <molecule>
CN[C@@H](C)C(=O)N[C@H]1CN(C(=O)CC(C)C)CC[C@H]2CC[C@@H](C(=O)NC(c3ccccc3)c3ccccc3)N2C1=O [AT-406] (max concentration tested 10000 nM)

>  <targetSystem>
normal primary NK cells, pool 1 (3 donors), resting (IL-2 0 ng/mL)

>  <percent inhibition of viability / %>
73.2

$$$$
